- protocol notes: RP, Thermo Scientific Acclaim RSLC 120 C18, 100 × 2.1 mm, 2.2 µm, 30 °C, 0.2 mL/min, estimated dead time 1.1 min; A: 90% water + 10% methanol + 0.01% formic acid + 5 mM ammonium formate, pH 3.61; B: methanol + 0.01% formic acid + 5 mM ammonium formate, pH 3.61; gradient (min/%B) 0/1 1/1 2/39 13/99.9 15/99.9 15.1/1 20.1/1
- measurement conditions: stereoisomer not certain
Classify: rule met when LC retention time is strictly less than 9 min; rule not met when LC retention time is not.

// below: answered compounds
compound	group label
CCOC(=O)Nc1ccc(NCc2ccc(F)cc2)nc1N [Flupirtine]	rule met
CCCCOC(=O)c1ccc(O)cc1 [Butylparaben]	rule not met
CCCc1nn(C)c2c(=O)[nH]c(-c3cc(S(=O)(=O)N4CCN(C)CC4)ccc3OCC)nc12 [Sildenafil]	rule met
NC(=O)N=C1SCCN1Cc1ccc(Cl)nc1 [Thiacloprid-amide]	rule met
CCC1OC(=O)CC(O)C(C)C(OC2OC(C)C(O)C(N(C)C)C2O)C(CCN2CC(C)CC(C)C2)CC(C)C(=O)C=CC(C)=CC1COC1OC(C)C(O)C(OC)C1OC (stereo not drawn) [Tilmicosin]	rule met

Qu. Given CCC1C2CC3C4N(C)c5ccccc5C45CC(C2C5O)N3C1O (stereo not drawn) [Ajmaline] , is recorded LC retention time strictly lower than 9 min?
Ans. rule met

Qu. Given CCOc1nc2cccc(C(=O)O)c2n1Cc1ccc(-c2ccccc2-c2nn[nH]n2)cc1 [Candesartan] , is recorded LC retention time strictly lower than 9 min?
Ans. rule met

Qu. Given COC=C(C(=O)OC)c1ccccc1COc1cccc(C(F)(F)F)n1 [Picoxystrobin] , is recorded LC retention time strictly lower than 9 min?
Ans. rule not met
